Target or system: human muscarinic M4 receptor (Homo sapiens)
Construct: expressed in transfected cells
Procedure text: Alphascreen Surefire phospho-ERK1/2 functional assay, M4
Type: cell-based
Cond: CHO cells stably expressing human M4; agonist 5 min, 37° C.; read-out: pEC50 M4 (converted)
Measure name: log10(EC50) (log10 of the value in nM)
Give log10 of EC50, with EC50 taken in nM.

Worked examples follow.
# Molecule, Target or system, log10(EC50)
measured = [
    ("Cc1noc(N2CCCC(N3CCC(N4CCCC4c4cnn(C)c4)CC3)CC2)n1 (single isomer, unassigned) [10-10 Isomer 2b]", "human muscarinic M4 receptor (Homo sapiens)", 2.50),
    ("Cc1noc(N2C3CCC2CC(N2CCC(C(=O)NC4(C)CCCC4)CC2)C3)n1 (single isomer, unassigned) [12-11 Isomer 2]", "human muscarinic M4 receptor (Homo sapiens)", 3.43),
    ("CCC1NC(=O)OC12CCN(C1CCCN(c3nc(C)no3)CC1)CC2 (single isomer, unassigned) [10-4 Isomer 4]", "human muscarinic M4 receptor (Homo sapiens)", 2.94),
]

stdin: Need log10(EC50) of CCC1(NC(=O)C2CCN(C3CC4CCC(C3)N4c3nc(C)no3)CC2)CCC1 (single isomer, unassigned) [12-8 Isomer 2] , thanks.
stdout: 2.97

stdin: Another molecule: Cc1noc(N2CC3CCC2CC3N2CCC(n3cccn3)CC2)n1 (single isomer, unassigned) [7-1 Isomer 1]
stdout: 2.18

stdin: Now try Cc1noc(N2CC3CC(N4CCC(n5cccn5)CC4)CC2C3)n1 (single isomer, unassigned) [11-1 Isomer 2] .
stdout: 3.02

###

Target or system: human muscarinic M1 receptor (Homo sapiens, UniProt P11229)
Sequence (P11229 1-460): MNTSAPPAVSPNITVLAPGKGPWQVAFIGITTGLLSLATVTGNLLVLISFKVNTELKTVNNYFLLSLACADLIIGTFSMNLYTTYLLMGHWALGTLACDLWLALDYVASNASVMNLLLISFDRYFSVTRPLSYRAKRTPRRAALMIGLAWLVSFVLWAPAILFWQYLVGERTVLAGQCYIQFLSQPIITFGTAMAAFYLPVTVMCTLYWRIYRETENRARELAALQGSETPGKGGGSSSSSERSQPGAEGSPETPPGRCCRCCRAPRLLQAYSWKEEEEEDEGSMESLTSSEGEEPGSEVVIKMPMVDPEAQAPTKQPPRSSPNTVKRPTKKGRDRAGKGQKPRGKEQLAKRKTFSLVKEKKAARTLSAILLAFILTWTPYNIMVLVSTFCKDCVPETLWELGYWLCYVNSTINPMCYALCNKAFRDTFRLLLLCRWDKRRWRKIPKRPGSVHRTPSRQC
Procedure text: Alphascreen Surefire phospho-ERK1/2 functional assay, M1
Assay type: cell-based
Cond: CHO cells stably expressing human M1; agonist 5 min, 37° C.; read-out: pEC50 M1 (converted)
EC50 reference
The answer is to be given in nM; state only the numeric part.

Some compounds with known EC50 results, for comparison:
# Compound, Target or system, Observed result
records = [
    ("Cc1noc(N2CCCC(N3CCC4(CC3)CNC(=O)C4)CC2)n1 (single isomer, unassigned) [10-2 Isomer 2]", "human muscarinic M1 receptor (Homo sapiens, UniProt P11229)", 490),
    ("Cc1noc(N2CCCC(N3CCC(N4CC(F)(F)C[C@@H]4CO)CC3)CC2)n1 (single isomer, unassigned) [10-8 Isomer 2]", "human muscarinic M1 receptor (Homo sapiens, UniProt P11229)", 1550),
    ("Cc1noc(N2C3CCC2CC(N2CCC(C(=O)NC4(C)CCCC4)CC2)C3)n1 (single isomer, unassigned) [12-11 Isomer 2]", "human muscarinic M1 receptor (Homo sapiens, UniProt P11229)", 661),
    ("CCC1NC(=O)OC12CCN(C1CCCN(c3nc(C)no3)CC1)CC2 (single isomer, unassigned) [10-4 Isomer 3]", "human muscarinic M1 receptor (Homo sapiens, UniProt P11229)", 9330),
    ("Cc1noc(N2CCCC(N3CCC4(CC3)CNC(=O)C4)CC2)n1 (single isomer, unassigned) [10-2 Isomer 1]", "human muscarinic M1 receptor (Homo sapiens, UniProt P11229)", 93.3),
]

Moving on to the next compound.
stdin: Reported EC50 for Cc1noc(N2CC3CC(N4CCC(n5cccn5)CC4)CC2C3)n1 (single isomer, unassigned) [11-1 Isomer 2] : what is it?
stdout: 3160

###

// values below are reported Emax
Target or system: human muscarinic M2 receptor (Homo sapiens, UniProt P08172)
Sequence (P08172 whole entry): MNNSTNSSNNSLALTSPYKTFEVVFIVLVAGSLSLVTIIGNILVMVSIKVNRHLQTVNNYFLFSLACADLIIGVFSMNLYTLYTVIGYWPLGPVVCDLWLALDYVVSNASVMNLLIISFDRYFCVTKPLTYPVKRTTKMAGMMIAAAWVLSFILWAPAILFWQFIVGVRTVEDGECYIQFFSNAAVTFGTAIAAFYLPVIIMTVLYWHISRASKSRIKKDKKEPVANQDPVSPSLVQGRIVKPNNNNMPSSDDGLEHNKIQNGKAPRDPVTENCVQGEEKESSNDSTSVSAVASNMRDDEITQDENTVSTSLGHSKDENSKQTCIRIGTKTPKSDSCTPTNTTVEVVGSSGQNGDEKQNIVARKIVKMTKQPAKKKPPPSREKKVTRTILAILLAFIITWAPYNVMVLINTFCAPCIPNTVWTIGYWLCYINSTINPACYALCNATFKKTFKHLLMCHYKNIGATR
Procedure text: Alphascreen Surefire phospho-ERK1/2 functional assay, M2
Assay type: cell-based
Cond: CHO, read-out: % Emax cf. ACh (M2)
State just the number; it will be interpreted in %.

Record excerpt, results attached:
# Compound, Target or system, Emax (%)
records = [
    ("Cc1noc(N2C3COCC2CC(N2CCC(n4cccn4)CC2)C3)n1 (single isomer, unassigned) [9-1 Isomer 1]", "human muscarinic M2 receptor (Homo sapiens, UniProt P08172)", 21),
    ("CC1(NC(=O)C2CCN(C3CC4CCC(C3)N4c3nc(C(F)(F)F)no3)CC2)CCC1 (single isomer, unassigned) [12-14 Isomer 2]", "human muscarinic M2 receptor (Homo sapiens, UniProt P08172)", 25),
]

Alright, here's another compound for you.
stdin: Using the record for Cc1noc(N2CCCC(N3CCC4(CC3)C(=O)Nc3ccccc34)CC2)n1 (single isomer, unassigned) [10-6 Isomer 1] , report its Emax.
stdout: 60

###

Target or system: human muscarinic M4 receptor (Homo sapiens, UniProt P08173)
Construct: expressed in transfected cells
Sequence (P08173 1-479): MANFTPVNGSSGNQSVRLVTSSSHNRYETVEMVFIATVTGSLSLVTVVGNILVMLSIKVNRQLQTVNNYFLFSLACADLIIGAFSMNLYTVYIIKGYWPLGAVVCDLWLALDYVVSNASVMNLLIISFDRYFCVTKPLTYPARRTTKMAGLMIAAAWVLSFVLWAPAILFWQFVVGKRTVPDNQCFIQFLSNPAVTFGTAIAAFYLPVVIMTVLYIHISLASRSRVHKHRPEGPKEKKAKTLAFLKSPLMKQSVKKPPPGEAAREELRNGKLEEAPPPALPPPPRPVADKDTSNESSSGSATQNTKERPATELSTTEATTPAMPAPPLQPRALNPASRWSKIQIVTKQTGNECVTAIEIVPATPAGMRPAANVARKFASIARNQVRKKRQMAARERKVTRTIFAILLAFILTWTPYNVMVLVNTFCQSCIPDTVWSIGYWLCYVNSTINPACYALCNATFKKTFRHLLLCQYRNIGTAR
Procedure text: Alphascreen Surefire phospho-ERK1/2 functional assay, M4
Type: cell-based
Cond: CHO cells stably expressing human M4; agonist 5 min, 37° C.
Measure name: pEC50 M4

stdin: Fill blank: measured pEC50 M4 of the molecule Cc1noc(N2CCCC(N3CCC4(CC3)CNC(=O)C4)CC2)n1 (single isomer, unassigned) [10-2 Isomer 2] is ____.
stdout: <4.70

stdin: Here is the next molecule: CCN(C)C(=O)[C@H]1[C@@H]2CN(C3CC4CCC(C3)N4c3nc(C)no3)C[C@@H]21 (single isomer, unassigned; isomer 1) [12-24 Isomer 1]
stdout: <4.70

stdin: And the next one, CCN(CC)C(=O)[C@H]1[C@@H]2CN(C3CC4CCC(C3)N4c3nc(C)no3)C[C@@H]21 (single isomer, unassigned; isomer 1) [12-25 Isomer 1] ?
stdout: <4.70

###

Target or system: human muscarinic M4 receptor (Homo sapiens)
Construct: expressed in transfected cells
Procedure text: Alphascreen Surefire phospho-ERK1/2 functional assay, M4
Type: cell-based
Cond: CHO cells stably expressing human M4; agonist 5 min, 37° C.; read-out: pEC50 M4 (converted)
Entries whose EC50 is below 0.3 µM take class 1; entries at or above 0.3 µM take class 0.

Sample answers from the record:
# Compound, Target or system, Class name
data = [
    ("Cc1noc(N2C3CCC2CC(N2CCC4(CC2)CNC(=O)C4)C3)n1 (single isomer, unassigned) [6-2 Isomer 2]", "human muscarinic M4 receptor (Homo sapiens)", "class 1"),
    ("CCc1noc(N2C3CCC2CC(N2CCC4(CC2)CNC(=O)C4)C3)n1 (single isomer, unassigned) [6-3 Isomer 2]", "human muscarinic M4 receptor (Homo sapiens)", "class 0"),
    ("Cc1noc(N2CCCC(N3CCC(N4C[C@H](F)C[C@@H]4CO)CC3)CC2)n1 (single isomer, unassigned) [10-7 Isomer 1]", "human muscarinic M4 receptor (Homo sapiens)", "class 1"),
    ("Cc1noc(N2C3CCC2CC(N2CCC4(CC2)CNC(=O)O4)C3)n1 (single isomer, unassigned) [6-4 Isomer 1]", "human muscarinic M4 receptor (Homo sapiens)", "class 0"),
    ("CC1(NC(=O)C2CCN(C3CC4CCC(C3)N4c3nc(C(F)(F)F)no3)CC2)CCC1 (single isomer, unassigned) [12-14 Isomer 2]", "human muscarinic M4 receptor (Homo sapiens)", "class 0"),
]

stdin: Please determine if Cc1noc(N2CC3CC(N4CCC5(CC4)CNC(=O)O5)CC2C3)n1 (single isomer, unassigned) [11-3 Isomer 2] is below 0.3 µM in terms of EC50.
stdout: class 0

stdin: Next entry: Cc1noc(N2C3CCCC2CC(N2CCC(n4cccn4)CC2)C3)n1 (single isomer, unassigned) [8-1 Isomer 2]
stdout: class 0

stdin: Please give the result for Cc1noc(N2CCC(N3CCC(n4cccn4)CC3)CC2)n1 [Example 4-1] too.
stdout: class 0

stdin: Would you mind doing Cc1noc(N2CC3CCC2CC3N2CCC3(CC2)CNC(=O)C3)n1 (single isomer, unassigned) [12-1 Isomer 1] as well?
stdout: class 0

stdin: Repeat with CC[C@H]1CCC(=O)N1C1CCN(C2CCCN(c3nc(C)no3)CC2)CC1 (single isomer, unassigned) [10-9 Isomer 2]
stdout: class 0
